Data credit: PubChem BioAssay AID1963426

Tested on: 186277-243-T-J2-PDC complex spheroid growth, % test/control
method: Anticancer human tumor 186277-243-T-J2-PDC patient-derived colon adenocarcinoma cell line growth inhibition [Asc]
experimental parameters: second compound 0.01 µM; first compound 0.0316 µM; hits give low values
Listing of recorded viability, T/C by entry.
Record the value in %, omitting the unit from your answer.

O=C(c1ccc(F)c(F)c1Nc1ccc(I)cc1F)N1CC(O)([C@@H]2CCCCN2)C1 + CNC(C)C(=O)NC1CN(S(=O)(=O)c2cccc(S(=O)(=O)N3CCC4CCC(C(=O)NC(c5ccccc5)c5ccccc5)N4C(=O)C(NC(=O)C(C)NC)C3)c2)CCC2CCC(C(=O)NC(c3ccccc3)c3ccccc3)N2C1=O
106

Kindly review the next compound as well.
# viability, T/C lookup, item O=C(c1cc(Cc2n[nH]c(=O)c3ccccc23)ccc1F)N1CCN(C(=O)C2CC2)CC1 + CNC(C)C(=O)NC1CN(S(=O)(=O)c2cccc(S(=O)(=O)N3CCC4CCC(C(=O)NC(c5ccccc5)c5ccccc5)N4C(=O)C(NC(=O)C(C)NC)C3)c2)CCC2CCC(C(=O)NC(c3ccccc3)c3ccccc3)N2C1=O
95.4

====

System: 186277-243-T-J2-PDC complex spheroid growth, % test/control
method: Anticancer human tumor 186277-243-T-J2-PDC cell line growth inhibition [Asc];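 also: spheroids exposed to agents for 7 days; 100% = DMSO vehicle control wells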
experimental parameters: second compound 3.16 µM; first compound 0.1 µM; hits give low values
Property: viability, T/C; scope: individual compounds
Enter your answer as a number in %; do not include the unit.

// below: answered compounds
C=C(F)C(=O)N1CCN(c2nc(OCC3CCCN3C)nc3c2CCN(c2cccc4cccc(Cl)c24)C3)CC1CC#N (stereo not drawn) + Cc1c(S(C)(=O)=O)c(-c2cc(F)cc(N3CCN(c4ccc(NS(=O)(=O)c5ccc(NC(CCN6CCC(C(=O)OCCCP(=O)(O)O)CC6)CSc6ccccc6)c(S(=O)(=O)C(F)(F)F)c5)cc4)CC3)c2)c(-c2ccc(Cl)cc2)n1C(C)C
108
O=C(c1ccc(F)c(F)c1Nc1ccc(I)cc1F)N1CC(O)([C@@H]2CCCCN2)C1 + Cc1c(S(C)(=O)=O)c(-c2cc(F)cc(N3CCN(c4ccc(NS(=O)(=O)c5ccc(NC(CCN6CCC(C(=O)OCCCP(=O)(O)O)CC6)CSc6ccccc6)c(S(=O)(=O)C(F)(F)F)c5)cc4)CC3)c2)c(-c2ccc(Cl)cc2)n1C(C)C
10.2

I'm curious: which viability, T/C was measured for NC1CCC(NC2CC2c2ccccc2)CC1 (stereo not drawn) + Cc1c(S(C)(=O)=O)c(-c2cc(F)cc(N3CCN(c4ccc(NS(=O)(=O)c5ccc(NC(CCN6CCC(C(=O)OCCCP(=O)(O)O)CC6)CSc6ccccc6)c(S(=O)(=O)C(F)(F)F)c5)cc4)CC3)c2)c(-c2ccc(Cl)cc2)n1C(C)C tested on 186277-243-T-J2-PDC complex spheroid growth, % test/control?
91.3

====

Test system: 186277-243-T-J2-PDC complex spheroid growth, % test/control
method: Anticancer human tumor 186277-243-T-J2-PDC cell line growth inhibition [Asc];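 also: spheroids exposed to agents for 7 days; 100% = DMSO vehicle control wells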
experimental parameters: second compound 0.949 µM; first compound 0.00316 µM; hits give low values
Excerpt: Multicellular complex tumor spheroid response to apoptosis pathway targeting inhibitors Alrizomadlin, Pelcitoclax, and Dasminapant in combination with a variety of drugs and investigational agents in selected tumor cell lines […] Compounds. […] If the clinical Cmax for an agent had not been determined, the highest concentration tested was 10 microM. […]
attribute measured: viability, T/C

Observe how each entry below is paired with its result.
NC1CCC(NC2CC2c2ccccc2)CC1 (stereo unspecified) + CCN1C(C(=O)NC23CCC(C(=O)O)(CC2)CC3)C(c2cccc(Cl)c2F)C2(C(=O)Nc3cc(Cl)ccc32)C12CCCCC2
66.1%
O=C(c1ccc(F)c(F)c1Nc1ccc(I)cc1F)N1CC(O)([C@@H]2CCCCN2)C1 + CCN1C(C(=O)NC23CCC(C(=O)O)(CC2)CC3)C(c2cccc(Cl)c2F)C2(C(=O)Nc3cc(Cl)ccc32)C12CCCCC2
52.2%
Cn1ncnc1[C@H]1c2n[nH]c(=O)c3cc(F)cc(c23)N[C@@H]1c1ccc(F)cc1 + CCN1C(C(=O)NC23CCC(C(=O)O)(CC2)CC3)C(c2cccc(Cl)c2F)C2(C(=O)Nc3cc(Cl)ccc32)C12CCCCC2
49.4%
CCN1CCN(Cc2ccc(Nc3ncc(F)c(-c4cc(F)c5nc(C)n(C(C)C)c5c4)n3)nc2)CC1 + CCN1C(C(=O)NC23CCC(C(=O)O)(CC2)CC3)C(c2cccc(Cl)c2F)C2(C(=O)Nc3cc(Cl)ccc32)C12CCCCC2
49.7%
COc1c(OCCCN2CCOCC2)ccc2c3n(c(=NC(=O)c4cnc(N)nc4)nc12)CCN3 + CCN1C(C(=O)NC23CCC(C(=O)O)(CC2)CC3)C(c2cccc(Cl)c2F)C2(C(=O)Nc3cc(Cl)ccc32)C12CCCCC2
49.5%

Continue with the compound presented below.
Entry CNC(C)C(=O)NC1CN(S(=O)(=O)c2cccc(S(=O)(=O)N3CCC4CCC(C(=O)NC(c5ccccc5)c5ccccc5)N4C(=O)C(NC(=O)C(C)NC)C3)c2)CCC2CCC(C(=O)NC(c3ccccc3)c3ccccc3)N2C1=O (stereo unspecified) + CCN1C(C(=O)NC23CCC(C(=O)O)(CC2)CC3)C(c2cccc(Cl)c2F)C2(C(=O)Nc3cc(Cl)ccc32)C12CCCCC2 has what viability, T/C?
60.8%
